// provenance: patent US20230212120A1

# subject-of-test: bovine GRK2 (Bos taurus)
# Sequence (P21146 whole entry): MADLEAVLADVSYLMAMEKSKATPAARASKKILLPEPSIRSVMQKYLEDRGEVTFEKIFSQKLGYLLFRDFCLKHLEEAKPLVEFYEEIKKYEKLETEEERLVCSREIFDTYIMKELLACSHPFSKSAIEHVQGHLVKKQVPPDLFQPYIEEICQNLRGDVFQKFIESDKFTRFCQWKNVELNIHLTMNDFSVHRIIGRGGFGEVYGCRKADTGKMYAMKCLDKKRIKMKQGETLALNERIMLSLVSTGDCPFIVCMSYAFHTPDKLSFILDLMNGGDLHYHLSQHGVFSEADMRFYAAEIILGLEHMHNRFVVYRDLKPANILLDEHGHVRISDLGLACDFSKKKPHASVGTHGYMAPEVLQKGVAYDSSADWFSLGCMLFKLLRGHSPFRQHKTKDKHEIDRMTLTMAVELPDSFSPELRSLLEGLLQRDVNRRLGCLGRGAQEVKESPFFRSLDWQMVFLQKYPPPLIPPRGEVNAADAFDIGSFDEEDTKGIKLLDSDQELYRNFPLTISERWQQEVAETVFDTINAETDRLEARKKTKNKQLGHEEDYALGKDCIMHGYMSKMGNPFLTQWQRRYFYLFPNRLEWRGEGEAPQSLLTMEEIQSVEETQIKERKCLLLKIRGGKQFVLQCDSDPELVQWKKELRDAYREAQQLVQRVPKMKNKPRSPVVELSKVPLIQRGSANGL
# assay-procedure: radiometric GRK2 inhibition assay (tubulin phosphorylation)
# measurement-context: read-out: GRK2 IC50; Table 2, μM ± SD
Rule: measured IC50 below 10 µM gets Condition met; anything equal to or greater than 10 µM gets Condition not met.

{"columns": ["compound-structure-string", "cat"],
 "data": [
  ["Cc1[nH]c(/C=C2\\C(=O)Nc3ccc(C(=O)N[C@H](C)c4ccccn4)cc32)c(C)c1NC(=O)CCl", "Condition met"],
  ["Cc1cccc([C@@H](C)NC(=O)c2ccc3c(c2)/C(=C/c2[nH]c(C)c(NC(=O)CCl)c2C)C(=O)N3)c1", "Condition not met"],
  ["Cc1[nH]c(/C=C2\\C(=O)Nc3ccc(C(=O)N[C@H](C)c4cccc(Cl)c4)cc32)c(C)c1NC(=O)CCl", "Condition not met"],
  ["Cc1ccc([C@@H](C)NC(=O)c2ccc3c(c2)/C(=C/c2[nH]c(C)c(NC(=O)CCl)c2C)C(=O)N3)cc1", "Condition met"],
  ["Cc1[nH]c(/C=C2\\C(=O)Nc3ccc(C(=O)NC4(c5ccccc5)COC4)cc32)c(C)c1NC(=O)CCl", "Condition not met"]
]}

Continue with the compound presented below.
q: Is IC50 of Cc1[nH]c(/C=C2\C(=O)Nc3ccc(C(=O)N[C@H](C)c4ccncc4)cc32)c(C)c1NC(=O)CCl strictly below 10 µM?
a: Condition met

###

# subject-of-test: GRK5 (Homo sapiens, UniProt P34947)
# Sequence (P34947 whole entry): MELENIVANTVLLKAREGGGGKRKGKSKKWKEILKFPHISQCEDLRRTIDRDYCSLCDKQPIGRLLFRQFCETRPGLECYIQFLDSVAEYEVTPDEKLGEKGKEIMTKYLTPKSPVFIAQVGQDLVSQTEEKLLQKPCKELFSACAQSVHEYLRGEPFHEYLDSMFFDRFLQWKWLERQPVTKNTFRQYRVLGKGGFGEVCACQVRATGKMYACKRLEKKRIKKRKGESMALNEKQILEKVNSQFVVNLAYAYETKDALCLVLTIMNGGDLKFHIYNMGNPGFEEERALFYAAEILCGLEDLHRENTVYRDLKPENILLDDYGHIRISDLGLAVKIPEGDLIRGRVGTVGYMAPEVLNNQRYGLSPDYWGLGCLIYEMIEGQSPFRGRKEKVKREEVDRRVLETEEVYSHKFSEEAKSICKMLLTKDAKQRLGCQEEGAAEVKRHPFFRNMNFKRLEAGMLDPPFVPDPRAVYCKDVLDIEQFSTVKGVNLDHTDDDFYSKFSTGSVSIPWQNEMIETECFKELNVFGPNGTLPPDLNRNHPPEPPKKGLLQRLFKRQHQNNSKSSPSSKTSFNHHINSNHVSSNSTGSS
# assay-procedure: radiometric GRK5 inhibition assay (tubulin phosphorylation)
# measurement-context: Table 2, ratio of IC50 values
parameter-measured: GRK2/GRK5
One number for each entry.

Record excerpt, results attached:
{"columns": ["compound", "subject-of-test", "GRK2/GRK5"],
 "data": [
  ["Cc1cccc([C@@H](C)NC(=O)c2ccc3c(c2)/C(=C/c2[nH]c(C)c(NC(=O)CCl)c2C)C(=O)N3)c1 [Compound 9i]", "GRK5 (Homo sapiens, UniProt P34947)", 360],
  ["Cc1[nH]c(/C=C2\\C(=O)Nc3ccc(C(=O)N[C@@H](c4ccccc4)C(C)C)cc32)c(C)c1NC(=O)CCl [Compound 9r]", "GRK5 (Homo sapiens, UniProt P34947)", 15],
  ["Cc1ccc([C@@H](C)NC(=O)c2ccc3c(c2)/C(=C/c2[nH]c(C)c(NC(=O)CCl)c2C)C(=O)N3)cc1 [Compound 9n]", "GRK5 (Homo sapiens, UniProt P34947)", 3]
]}

q: If you can, please state the reported GRK2/GRK5 value of Cc1[nH]c(/C=C2\C(=O)Nc3ccc(C(=O)NC(C)(C)c4ccccc4)cc32)c(C)c1NC(=O)CCl [Compound 9s] .
a: 260

###

Hi there, I'd appreciate the recorded pH After Assay for every entry that follows.
# assay-procedure: Thermodynamic solubility (Analiza Inc.)
# Format: physicochemical
# measurement-context: Water, solubility assay

Completed entries (count: 4):
{"columns": ["compound-structure-string", "parameter-measured", "reported-result"],
 "data": [
  ["Cc1[nH]c(/C=C2\\C(=O)Nc3ccc(C(=O)N[C@H](C)c4ccccc4)cc32)c(C)c1NC(=O)CCl", "pH After Assay", 5],
  ["Cc1[nH]c(/C=C2\\C(=O)Nc3ccc(C(=O)N[C@H](C)c4ccc(F)cc4)cc32)c(C)c1NC(=O)CCl", "pH After Assay", 3],
  ["Cc1[nH]c(/C=C2\\C(=O)Nc3ccc(C(=O)N[C@H](C)c4ccccc4)cc32)c(C)c1NC(=O)/C=C/CN(C)C", "pH After Assay", 5],
  ["Cc1ccc([C@@H](C)NC(=O)c2ccc3c(c2)/C(=C/c2[nH]c(C)c(NC(=O)CCl)c2C)C(=O)N3)cc1", "pH After Assay", 2.5]
]}

Hi, could you look up pH After Assay for each item in my list?
1. Cc1[nH]c(/C=C2\C(=O)Nc3ccc(C(=O)N[C@H](C)c4ccccn4)cc32)c(C)c1NC(=O)CCl
2. Cc1[nH]c(/C=C2\C(=O)Nc3ccc(C(=O)N[C@H](C)c4ccc(Cl)cc4)cc32)c(C)c1NC(=O)CCl

a:
[4, 4]
